- Measurement description: Acute oral toxicity, mice
- Measurement parameters: mouse, in vivo, po
Reported property: LD50 (mg/kg)
Quick reminder: number only, in mg/kg, skip the unit.

Problem: What does the record list as LD50 for COc1cc(NC(C)CCCN)c2ncccc2c1 (stereo not shown) [Primaquine Diphosphate, reference compound] ?
Solution: 148

###

- Measurement description: in vivo
- Measurement parameters: rat, po, Acute Oral LD50, rats, female
Reported property: LD50 (mg/kg)
Quick reminder: number only, in mg/kg, skip the unit.

Problem: What does the record list as LD50 for COc1cc(NC(C)CCCN)c2nccc(C)c2c1Oc1cccc(C(F)(F)F)c1.O=C(O)CCC(=O)O (stereo not shown) ?
Solution: 577

This collection of values is drawn from patent US4431807A.
